# Test system: brine shrimps Artemia salina
# MEASUREMENT PROTOCOL: in vivo
# STUDY CONDITIONS: read-out: LC50 (brine shrimp lethality); Artemia salina
# Method: The brine shrimp lethality bioassay on Artemia salina was performed to predict the toxicity of the compounds. The test was conducted using 24-well plate as described previously according to standard protocols (Solis et al. [1993]; Meyer et al. [1982]). The wells containing FSW-DMSO (v/v 1:1000) served as the negative controls. Adriamycin was used as a positive control. […]
TEST READOUT: LC50
Provide the measurement as a number trailed by its unit.

Any idea what LC50 was measured for COC(=O)c1c(C)cc(Oc2cc(C)cc(O)c2)cc1O ? 34.7 µM

* * *

Hi there, I'd appreciate the recorded LC50 for every entry that follows.
# System: cyprids of barnacle B. amphitrite
# MEASUREMENT PROTOCOL: Anti-larval settlement bioassay (antifouling activity and larval toxicity)
# Type: in vivo
# STUDY CONDITIONS: cyprids of B. amphitrite, 48 h at 28 °C, concentration where 50% of larvae were dead
# Experimental: The newly released nauplii were screened with the aperture of 90 μm. The newly released nauplii were raised in filtered seawater (FSW) at 28 °C with mild aeration and fed with Chaetoceros gracilis Schutt at 1 × 10^6 cells ml^−1. The nauplius larvae transformed into cyprids (ready to attach and metamorphose) after 3.5 days. […] The antifouling activity was evaluated as larval settlement inhibition against the cyprids of barnacle B. amphitrite using 24-well polystyrene plates (Nunc, Naperville, CA, USA). […]

Any idea what LC50 was measured for COC(=O)c1ccccc1NC(=O)[C@H](CC[S+](C)[O-])NC(=O)c1cnc2c(n1)c(=O)n(C)c(=O)n2C (stereo partly shown) [compound 53, Penilumamide] ? > 96.9 µM

Any idea what LC50 was measured for COc1cc(C)c(C(=O)O[C@@H]2[C@H](O)[C@@H](CO)O[C@H]2n2ccc(=O)[nH]c2=O)c(OC)c1 ? > 59.2 µM

Any idea what LC50 was measured for CC(C)CCC(C)C1CCC(C2=CC(O)C3CC(O)CCC3(C)C2=O)C1(C)CCO (stereo not shown) ? 59.5 µM

Any idea what LC50 was measured for CC1=CC(=O)c2c1cc(C(C)C)c(C=O)c2C ? > 219 µM

* * *

# Test system: cyprids of barnacle B. amphitrite
# MEASUREMENT PROTOCOL: Anti-larval settlement bioassay (antifouling activity and larval toxicity)
# Type: in vivo
# STUDY CONDITIONS: cyprids of B. amphitrite, 48 h at 28 °C, concentration where 50% of larvae were inhibited to settle vs negative control; read-out: EC50 (larval settlement inhibition)
pEC50: −log10 of the molar value. Starred links: 1 amine or outer side, 2 acyl side, 3 side chain; linkers in the order of their positions; H or OH if unused. Non-standard residues stand in square brackets, D forms with d. Residues, ends and D or L forms follow the SMILES beside them. X1 = O=C(c1cc(O)ccc1N[*:1])[*:2]
TEST READOUT: pEC50

Any idea what pEC50 was measured for C=C(CCC(C)C1CCC(C2=CC(O)C3CC(O)CCC3(C)C2=O)C1(C)CCO)C(C)C (stereo not drawn) [compound 27] ? < 4.25

Any idea what pEC50 was measured for C=CC(C)(C)c1[nH]c2ccccc2c1/C=C1\NC(=O)C2(C=C3c4cc(O)cc(O)c4C(=O)c4c(O)cc(C)c(c43)O2)NC1=O (stereo not drawn) [compound 42, Variecolortide B] ? < 4.07

Any idea what pEC50 was measured for C[C@]12CC[C@H](O)[C@H](O1)c1c(cc3c(c1O)C(=O)c1c(O)cc(O)cc1C3=O)O2 [compound 34, Nidurufin] ? < 4.19

Any idea what pEC50 was measured for COc1cc(O)cc2c1C(=O)c1c(O)cc(CO)c(O)c1C2=O [compound 36, ω-Hydroxyrubrocristin] ? < 4.10

Any idea what pEC50 was measured for COc1cc(O)cc2c1C(=O)c1c(O)cc(CO)cc1C2=O [compound 35, Questinol] ? < 4.08

Any idea what pEC50 was measured for CC1=CC(=O)c2c1cc(C(C)C)c(C=O)c2C [compound 19] ? < 3.96

Any idea what pEC50 was measured for CC(C)C(C)CCC(C)C1CCC(C2=CC(O)C3CC(O)CCC3(C)C2=O)C1(C)CCO (mixture of isomers) [compound 24] ? < 4.25

Any idea what pEC50 was measured for COc1cc(O)cc(C)c1C(=O)O[C@@H]1[C@H](O)[C@@H](CO)O[C@H]1n1ccc(=O)[nH]c1=O [compound 48, Kipukasin H] ? < 4.21

Any idea what pEC50 was measured for CC1=CC(=O)c2c(C)cc(C(=O)C(C)C)cc21 [compound 20, Ochracenoid B] ? < 3.96

Any idea what pEC50 was measured for C[C@H](NC(=O)c1cnc2c(n1)c(=O)n(C)c(=O)n2C)C(=O)Nc1ccccc1C(N)=O [compound 54, Penilumamide D] ? < 4.23

Any idea what pEC50 was measured for C=CC(C)(C)c1[nH]c2ccc(CC=C(C)C)cc2c1C=C1NC(=O)C2(C=C3c4cc(O)cc(OC)c4C(=O)c4c(O)cc(C)c(c43)O2)NC1=O (stereo not drawn) [compound 41, 7-O-methylvariecolortide A] ? < 4.13

Any idea what pEC50 was measured for COc1cc(C)c(C(=O)O[C@H]2[C@@H](O)[C@H](n3ccc(=O)[nH]c3=O)O[C@@H]2CO)c(OC)c1 [compound 50, Kipukasin D] ? < 4.23

Any idea what pEC50 was measured for C[C@@H]1NC(=O)[C@H](Cc2ccc(O)cc2)NC(=O)c2cc(O)ccc2NC(=O)[C@@H]2CCCN2C(=O)[C@H](C)NC1=O [compound 55, Asperpeptide A] (cyclo(AAP[X1]Y)) ? < 4.33

Any idea what pEC50 was measured for COc1cc(C)c(C(=O)O[C@@H]2[C@H](O)[C@@H](CO)O[C@H]2n2ccc(=O)[nH]c2=O)c(OC)c1 [compound 49, Kipukasin E] ? < 4.23

Any idea what pEC50 was measured for COC(=O)c1ccccc1NC(=O)[C@H](CC[S+](C)[O-])NC(=O)c1cnc2c(n1)c(=O)n(C)c(=O)n2C (stereo partly drawn) [compound 53, Penilumamide] ? < 4.01

* * *

Hi there, I'd appreciate the recorded LC50 for every entry that follows.
# MEASUREMENT PROTOCOL: Anti-larval settlement bioassay (antifouling activity and larval toxicity)
# Format: in vivo
# STUDY CONDITIONS: Balanus (Amphibalanus) amphitrite (barnacle cyprid larvae), in vivo; cyprids of B. amphitrite, 48 h at 28 °C, concentration where 50% of larvae were dead

Any idea what LC50 was measured for CO[C@H]1[C@@H](O)CC/C(C)=C/[C@H]2C=C(C)[C@@H](C)[C@H]3[C@H](CC(C)C)NC(=O)[C@]32C(=O)C[C@@H]1O [compound 46, Aspochalasin K] ? > 115 µM

Any idea what LC50 was measured for C=CC(C)(C)c1[nH]c2c(CC=C(C)C)cc(CC=C(C)C)cc2c1C[C@@H]1NC(=O)[C@H](C)NC1=O [compound 44, Echinulin] ? > 108 µM

Any idea what LC50 was measured for CC1=C[C@@H]2/C=C(\C)CC[C@H](O)[C@H](O)[C@@H](O)CC(=O)[C@]23C(=O)N[C@@H](CC(C)C)[C@@H]3[C@@H]1C [compound 47, Aspochalasin E] ? > 119 µM

* * *

Hi there, I'd appreciate the recorded LC50 for every entry that follows.
# System: cyprids of barnacle B. amphitrite
# MEASUREMENT PROTOCOL: Anti-larval settlement bioassay (antifouling activity and larval toxicity)
# Type: in vivo
# STUDY CONDITIONS: cyprids of B. amphitrite, 48 h at 28 °C, concentration where 50% of larvae were dead
Starred links: 1 amine or outer side, 2 acyl side, 3 side chain; linkers in the order of their positions; H or OH if unused. Non-standard residues stand in square brackets, D forms with d. Residues, ends and D or L forms follow the SMILES beside them. X1 = O=C(c1cc(O)ccc1N[*:1])[*:2]

Any idea what LC50 was measured for C[C@H](NC(=O)c1cnc2c(n1)c(=O)n(C)c(=O)n2C)C(=O)Nc1ccccc1C(N)=O [compound 54, Penilumamide D] ? > 58.8 µM

Any idea what LC50 was measured for COc1cc(O)c(-c2c3c(c(O)c4c(OC)cc(O)cc24)C(=O)C=C(C)C3=O)c2cc3c(c(O)c12)C(=O)C[C@@](C)(O)C3 [compound 37, Asperinine A] ? > 87.7 µM

Any idea what LC50 was measured for COc1cc(O)c(-c2c3c(c(O)c4c(OC)cc(O)cc24)C(=O)C=C(C)C3=O)c2cc3c(c(O)c12)C(=O)C[C@@](C)(O)C3 [compound 38, Asperinine B] ? > 87.7 µM

Any idea what LC50 was measured for C[C@@H]1NC(=O)[C@H](Cc2ccc(O)cc2)NC(=O)c2cc(O)ccc2NC(=O)[C@@H]2CCCN2C(=O)[C@H](C)NC1=O [compound 55, Asperpeptide A] (cyclo(AAP[X1]Y)) ? > 46.6 µM

Any idea what LC50 was measured for C=CC(C)(C)c1[nH]c2ccc(CC=C(C)C)cc2c1C=C1NC(=O)C2(C=C3c4cc(O)cc(OC)c4C(=O)c4c(O)cc(C)c(c43)O2)NC1=O (centres unmarked) [compound 41, 7-O-methylvariecolortide A] ? > 74.5 µM
